# EXPERIMENTAL_TARGET: KMO mouse enzyme (Mus musculus)
# Construct: KMO enzyme prepared at Evotec from mouse liver (4-6 weeks old) via mitochondria isolation; from tissue; host or cells: mouse liver (4-6 weeks old), isolated mitochondria
# Sequence (Q91WN4 whole entry): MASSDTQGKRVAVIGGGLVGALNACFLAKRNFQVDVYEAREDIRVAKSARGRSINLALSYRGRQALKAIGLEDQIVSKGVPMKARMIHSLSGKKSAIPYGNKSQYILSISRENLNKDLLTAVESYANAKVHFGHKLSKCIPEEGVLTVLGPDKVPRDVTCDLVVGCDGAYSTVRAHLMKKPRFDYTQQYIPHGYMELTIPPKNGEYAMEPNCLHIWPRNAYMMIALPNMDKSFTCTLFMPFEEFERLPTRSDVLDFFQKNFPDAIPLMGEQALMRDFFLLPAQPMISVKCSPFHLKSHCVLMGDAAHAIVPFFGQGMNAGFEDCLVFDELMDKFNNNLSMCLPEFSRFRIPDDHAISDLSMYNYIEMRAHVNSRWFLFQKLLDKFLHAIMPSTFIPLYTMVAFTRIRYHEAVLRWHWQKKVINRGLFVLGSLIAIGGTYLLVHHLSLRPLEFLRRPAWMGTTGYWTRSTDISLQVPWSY
# TEST_DETAILS: KMO mouse enzyme assay: L-Kynurenine hydroxylation to 3OH-KYN by LC/MS
# Format: biochemical
# CONDITION_DETAILS: compound at 10 μM; KMO from mouse liver mitochondria; read-out: INH.Mouse @ 10 μM
Listed compounds paired with reported inhibition at 10 µM
Your answer should be a plain number; it is taken to be in %.

{"columns": ["COMPOUND", "EXPERIMENTAL_TARGET", "OBS_VALUE"],
 "data": [
  ["CO/N=C(\\CCC(=O)Oc1cccnc1)c1ccc(Cl)c(Cl)c1", "KMO mouse enzyme (Mus musculus)", 105],
  ["CON=C(CCC(=O)Nc1nncs1)c1ccc(Cl)c(Cl)c1", "KMO mouse enzyme (Mus musculus)", 95.2],
  ["CON=C(CCC(=O)Nc1cncc(C)c1)c1ccc(Cl)c(Cl)c1", "KMO mouse enzyme (Mus musculus)", 102],
  ["CON=C(CCC(=O)Nc1cncnc1)c1ccc(Cl)c(Cl)c1", "KMO mouse enzyme (Mus musculus)", 98.5],
  ["CO/N=C(\\CCC(=O)Nc1cnn(C)c1)c1ccc(Cl)c(Cl)c1", "KMO mouse enzyme (Mus musculus)", 90.5]
]}

Incoming: Please give the measured inhibition at 10 µM for this compound: CO/N=C(\CCC(=O)Nc1ccccn1)c1ccc(Cl)c(Cl)c1
Outgoing: 104

Incoming: Please give the measured inhibition at 10 µM for this compound: CON=C(CCC(=O)NCC(O)CO)c1ccc(Cl)c(Cl)c1 (centres unmarked)
Outgoing: 75.7

Incoming: Please give the measured inhibition at 10 µM for this compound: COC(=O)CC/C(=N\OCc1ccccc1)c1ccc(Cl)c(Cl)c1
Outgoing: 66

====

# EXPERIMENTAL_TARGET: KMO mouse enzyme (Mus musculus)
# Construct: KMO enzyme prepared at Evotec from mouse liver (4-6 weeks old) via mitochondria isolation; from tissue; host or cells: mouse liver (4-6 weeks old), isolated mitochondria
# TEST_DETAILS: KMO mouse enzyme assay: L-Kynurenine hydroxylation to 3OH-KYN by LC/MS
# Assay type: biochemical
# CONDITION_DETAILS: compound at 10 μM; KMO from mouse liver mitochondria; read-out: INH.Mouse @ 10 μM
Tag: Y if measured inhibition at 10 µM is not below 90%, N if it is.

{"columns": ["MOLECULE", "GROUP_LABEL"],
 "data": [
  ["CON=C(CCC(=O)O)c1cccc(Cl)c1", "Y"],
  ["CON=C(CCC(=O)N(C)OC)c1ccc(Cl)c(Cl)c1", "Y"],
  ["CO/N=C(\\CCC(=O)OC1CCCC1)c1ccc(Cl)c(Cl)c1", "Y"],
  ["CC(C)(C)OC(=O)NCCON=C(CCC(=O)O)c1ccc(Cl)c(Cl)c1", "N"],
  ["CON=C(CCC(=O)NCC(C)O)c1ccc(Cl)c(Cl)c1 (centres unmarked)", "Y"]
]}

Incoming: Does the reported inhibition at 10 µM for CO/N=C(\CCC(=O)Nc1ccon1)c1ccc(Cl)c(Cl)c1 fall at or above the 90% mark?
Outgoing: Y

Incoming: Does the reported inhibition at 10 µM for CO/N=C(\CCC(=O)NC1CC1)c1ccc(Cl)c(Cl)c1 fall at or above the 90% mark?
Outgoing: Y

Incoming: Does the reported inhibition at 10 µM for CO/N=C(\CCC(=O)N(C)C)c1ccc(Cl)c(Cl)c1 fall at or above the 90% mark?
Outgoing: N

Incoming: Does the reported inhibition at 10 µM for CCO/N=C(\CCC(=O)OC)c1ccc(Cl)c(Cl)c1 fall at or above the 90% mark?
Outgoing: Y

Incoming: Does the reported inhibition at 10 µM for O=C(O)CC/C(=N\OCc1ccccc1)c1ccc(Cl)c(Cl)c1 fall at or above the 90% mark?
Outgoing: N

Incoming: Does the reported inhibition at 10 µM for CON=C(c1ccc(Cl)c(Cl)c1)[C@H]1C[C@@H]1C(=O)O fall at or above the 90% mark?
Outgoing: N

Incoming: Does the reported inhibition at 10 µM for CON=C(CCC(=O)NCCO)c1ccc(Cl)c(Cl)c1 fall at or above the 90% mark?
Outgoing: Y
